Data origin: patent US20250002458A1

experiment: Stability of select salts of Compound 1 at 5, 25 and 40° C. over 6 months, purity by HPLC; type: physicochemical; conditions: 5° C., 2nd Month
Counter-ions that a name gives are not always drawn.
Known Purity of a selection of compounds
metric: Purity

[[record]]
compound = "C[C@H](NC(=O)OC[n+]1cccc(C(=O)NCCO[N+](=O)[O-])c1)C1CCCCC1 [Compound 1 Perchlorate Salt]"
metric = "Purity"
measuredresult = 93.0

[[record]]
compound = "C[C@H](NC(=O)OC[n+]1cccc(C(=O)NCCO[N+](=O)[O-])c1)C1CCCCC1 [Compound 1 Trifluoroacetate Salt]"
metric = "Purity"
measuredresult = 96.6

[[record]]
compound = "C[C@H](NC(=O)OC[n+]1cccc(C(=O)NCCO[N+](=O)[O-])c1)C1CCCCC1 [Compound 1 Besylate Salt]"
metric = "Purity"
measuredresult = 88.6

[[record]]
compound = "C[C@H](NC(=O)OC[n+]1cccc(C(=O)NCCO[N+](=O)[O-])c1)C1CCCCC1 [Compound 1 Triflate Salt]"
metric = "Purity"
measuredresult = 95.0

[[record]]
compound = "C[C@H](NC(=O)OC[n+]1cccc(C(=O)NCCO[N+](=O)[O-])c1)C1CCCCC1 [Compound 1 4-Nitrobesylate Salt]"
metric = "Purity"
measuredresult = 98.1

[[record]]
compound = "C[C@H](NC(=O)OC[n+]1cccc(C(=O)NCCO[N+](=O)[O-])c1)C1CCCCC1 [Compound 1 4-Bromobesylate Salt]"
metric = "Purity"
measuredresult = 93.1

[[record]]
compound = "C[C@H](NC(=O)OC[n+]1cccc(C(=O)NCCO[N+](=O)[O-])c1)C1CCCCC1 [Compound 1 Esylate Salt]"
metric = "Purity"
measuredresult = 92.3

[[record]]
compound = "C[C@H](NC(=O)OC[n+]1cccc(C(=O)NCCO[N+](=O)[O-])c1)C1CCCCC1 [Compound 1 Phosphate Salt]"
metric = "Purity"
measuredresult = 93.8

[[record]]
compound = "C[C@H](NC(=O)OC[n+]1cccc(C(=O)NCCO[N+](=O)[O-])c1)C1CCCCC1 [Compound 1 Sulphate Salt]"
metric = "Purity"
measuredresult = 87.9


----------
experiment: Stability of select salts of Compound 1 at 5, 25 and 40° C. over 6 months, purity by HPLC; assay type: physicochemical; settings: 25° C., 1st Month
Structures can show the parent of a compound that is named as a salt.
Known Purity of a selection of compounds
metric: Purity

[[record]]
compound = "C[C@H](NC(=O)OC[n+]1cccc(C(=O)NCCO[N+](=O)[O-])c1)C1CCCCC1 [Compound 1 Triflate Salt]"
measuredresult = 94.4

[[record]]
compound = "C[C@H](NC(=O)OC[n+]1cccc(C(=O)NCCO[N+](=O)[O-])c1)C1CCCCC1 [Compound 1 Esylate Salt]"
measuredresult = 91.4

[[record]]
compound = "C[C@H](NC(=O)OC[n+]1cccc(C(=O)NCCO[N+](=O)[O-])c1)C1CCCCC1 [Compound 1 Phosphate Salt]"
measuredresult = 93.3

[[record]]
compound = "C[C@H](NC(=O)OC[n+]1cccc(C(=O)NCCO[N+](=O)[O-])c1)C1CCCCC1 [Compound 1 4-Nitrobesylate Salt]"
measuredresult = 97.2

[[record]]
compound = "C[C@H](NC(=O)OC[n+]1cccc(C(=O)NCCO[N+](=O)[O-])c1)C1CCCCC1 [Compound 1 Trifluoroacetate Salt]"
measuredresult = 96.5

[[record]]
compound = "C[C@H](NC(=O)OC[n+]1cccc(C(=O)NCCO[N+](=O)[O-])c1)C1CCCCC1 [Compound 1 Besylate Salt]"
measuredresult = 87.1

[[record]]
compound = "C[C@H](NC(=O)OC[n+]1cccc(C(=O)NCCO[N+](=O)[O-])c1)C1CCCCC1 [Compound 1 Perchlorate Salt]"
measuredresult = 95.4

[[record]]
compound = "C[C@H](NC(=O)OC[n+]1cccc(C(=O)NCCO[N+](=O)[O-])c1)C1CCCCC1 [Compound 1 Sulphate Salt]"
measuredresult = 90.0

[[record]]
compound = "C[C@H](NC(=O)OC[n+]1cccc(C(=O)NCCO[N+](=O)[O-])c1)C1CCCCC1 [Compound 1 4-Bromobesylate Salt]"
measuredresult = 89.0

